Readings of Statistical Significance of Tail Lesions for the listed compounds
System: Vaccinia IHD virus
Format: in vivo, mouse
Conditions: 100 [ng], day 12
Counter-ions that a name gives are not always drawn.

Here's what some known entries look like.
Ask: # lookup: Statistical Significance of Tail Lesions of NNC(N)=S [Thiosemicarbazide, thiosemicarbazide]
Reply: < .01

Ask: # lookup: Statistical Significance of Tail Lesions of CCC(C)=NNC(N)=S [2-Butanone, thiosemicarbazone, 2-butanone, thiosemicarbazone]
Reply: < .01

Ask: # lookup: Statistical Significance of Tail Lesions of NN [hydrazine]
Reply: < .01

Now turn to the next compound.
Ask: # lookup: Statistical Significance of Tail Lesions of NNC(N)=O [semicarbazide, hydrochloride]
Reply: < .05

---

Test system: Herpes virus
Settings: total dose .05 μg
Readings of No. animals surviving when 100% (or given fraction) of controls are dead for the listed compounds
Answer with a bare number; do not write a unit.

Ask: # lookup: No. animals surviving when 100% (or given fraction) of controls are dead of CCC(C)=NNC(N)=S [2-Butanone, thiosemicarbazone, 2-butanone, thiosemicarbazone]
Reply: 0

Ask: # lookup: No. animals surviving when 100% (or given fraction) of controls are dead of CN1C(=O)/C(=N\NC(N)=S)c2ccccc21 [Methisazone, reference compound]
Reply: 0

Ask: # lookup: No. animals surviving when 100% (or given fraction) of controls are dead of NN [hydrazine]
Reply: 1

Ask: # lookup: No. animals surviving when 100% (or given fraction) of controls are dead of NN.O=S(=O)(O)O [Hydrazine Sulfate, hydrazine sulfate]
Reply: 1

Now turn to the next compound.
Ask: # lookup: No. animals surviving when 100% (or given fraction) of controls are dead of NNC(=O)c1ccncc1 [Isoniazid, isoniazid, reference compound]
Reply: 1

---

Tested on: Influenza, Ann Arbor virus
Assay: Influenza Ann Arbor in mice, oral; schedule by table; late read day 5 (Tables 15, 25, 29, 30), 6 (18, 20, 22, 23, 26, 27, 28, 54), 7 (14, 19, 21, 24, 53, 56), 8 (16, 17, 51), 9 (11, 55)
Type: in vivo, mouse
Conditions: total dose 3 ng
endpoint.label: Survivors
Answer with a bare number; do not write a unit.

Here's what some known entries look like.
Ask: # lookup: Survivors of CNN [Methylhydrazine, methylhydrazine]
Reply: 1

Ask: # lookup: Survivors of `CCOC(=O)CC(C)=NNC(N)=S`
Reply: 0

Now turn to the next molecule.
Ask: # lookup: Survivors of `CCC(CC)=NNC(N)=S`
Reply: 0

---

Test system: Influenza, Ann Arbor virus
Assay: Influenza Ann Arbor in mice, oral; schedule by table; late read day 5 (Tables 15, 25, 29, 30), 6 (18, 20, 22, 23, 26, 27, 28, 54), 7 (14, 19, 21, 24, 53, 56), 8 (16, 17, 51), 9 (11, 55)
Format: in vivo, mouse
Settings: total dose 3 μg
Structures can show the parent of a compound that is named as a salt.
endpoint.label: Survivors
Answer with a bare number; do not write a unit.

Here's what some known entries look like.
Ask: # lookup: Survivors of `Cc1ccccc1NC(=S)NN=C1CCCC1`
Reply: 0

Ask: # lookup: Survivors of `NC(N)=NN=Cc1c(Cl)cccc1Cl`
Reply: 0

Ask: # lookup: Survivors of CCC(C)=NNC(=N)N.O=[N+]([O-])O [1-(sec-butylideneamino)guanidine nitrate]
Reply: 0

Ask: # lookup: Survivors of `N=C(N)NN`
Reply: 3

Continuing:
Ask: # lookup: Survivors of `CCCC(C)=NNC(N)=S`
Reply: 0

Ask: # lookup: Survivors of `C=CCNC(=S)NN=C1Cc2ccccc2C1`
Reply: 0

Ask: # lookup: Survivors of CNNC [1,2-dimethylhydrazine, dihydrochloride]
Reply: 0

Ask: # lookup: Survivors of CN(C)N [1,1-dimethylhydrazine]
Reply: 0

Ask: # lookup: Survivors of `CCC(CC)=NNC(N)=S`
Reply: 1

Ask: # lookup: Survivors of CNN [Methylhydrazine, methylhydrazine]
Reply: 0

Ask: # lookup: Survivors of `NC(=S)NN=C1Cc2ccccc2C1`
Reply: 1

Ask: # lookup: Survivors of `CCOC(=O)CC(C)=NNC(N)=S`
Reply: 0

Ask: # lookup: Survivors of `NC(N)=S`
Reply: 0

Ask: # lookup: Survivors of `CC(C)=NNC(N)=S`
Reply: 0
